Hi there, I'd appreciate the recorded pKi for every entry that follows.
Test: Inhibition of bovine alpha chymotrypsin using Ala-Ala-Phe-7-AMC as substrate measured for 10 mins by spectrophotometric analysis
Set-up: species or system Bos taurus
pKi: −log10 of the molar value.

INSERT INTO results (sample_smiles, data_value) VALUES
  ('CC[C@H](C)[C@H](NC(=O)[C@H](CCCCN=[N+]=[N-])NC(=O)OCc1ccccc1)C(=O)N[C@@H](CC(C)C)B1O[C@@H]2C[C@@H]3C[C@@H](C3(C)C)[C@]2(C)O1', '< 4.60'),
  ('C=CCOc1ccc(CCC(=O)c2ccc(C(=O)N[C@@H](Cc3ccc(OCC=C)cc3)C(=O)N[C@@H](CC(C)C)B3O[C@@H]4C[C@@H]5C[C@@H](C5(C)C)[C@]4(C)O3)[nH]2)cc1', '< 4.60');

Moving on to the next molecule.
*Q* Value lookup for pKi; key = CC(C)C[C@H](NC(=O)[C@H](CCc1ccccc1)NC(=O)CN1CCOCC1)C(=O)N[C@@H](Cc1ccccc1)C(=O)N[C@@H](CC(C)C)C(=O)[C@@]1(C)CO1
*A* < 4.60

Values were extracted from ChEMBL document CHEMBL3864172.
